method_notes: qHTS RealTime-Glo MT Cell Viability Assay in HepG2 cells - 40 hour (AID 1224870); note: nearly all actives have a fitted effect of over 50% in size
protocol_conditions: RealTime-Glo luminescence; series mostly up to 76.8 µM
Records with an inconclusive call do not appear. Activity calls are given as the source filed them. Calls come from the whole dose curve; as a rule, active = well fitted cell-killing curve with a large enough effect in the repeat runs; inconclusive = weak or mixed curves, or effect the other way; inactive = flat fitted curve, though single readings scatter.
Please answer using one outcome listed in 1 (yes) for active, 0 (no) for inactive

Illustrative cases are given below, each with its answer.
>  <molecule>
CN(C)CCc1c[nH]c2cccc(O)c12

>  <group>
0 (no)

$$$$
>  <molecule>
Fc1cccc(Cl)c1CCl

>  <group>
0 (no)

$$$$
>  <molecule>
CC(=O)/C=C/c1ccc2c(c1)OCO2

>  <group>
0 (no)

$$$$
>  <molecule>
COC[C@H](C)N(C(=O)CCl)c1c(C)csc1C

>  <group>
0 (no)

$$$$
>  <molecule>
Cc1ccc(CCl)cc1

>  <group>
0 (no)

$$$$

Problem: Which result was noted for this molecule in the test: NNC(=O)c1ccccc1
Solution: 0 (no)

Problem: Request: Clc1ccc(-c2ccccc2)cc1
Solution: 0 (no)

Problem: Request: CN(CCCC(O)c1cccnc1)N=O (centres undefined)
Solution: 0 (no)

Problem: Request: CC(=O)c1cc(C(C)(C)C)cc2c1CCC2(C)C
Solution: 0 (no)

###

method_notes: A CellTox Green Cytotoxicity Assay to monitor cytotoxicity in HEK293 cells - 40 hour (AID 1224871); note: nearly all actives have a fitted effect of over 45% in size
protocol_conditions: CellTox Green fluorescence; series mostly up to 76.8 µM
Inconclusive results are not listed. Activity calls are given as the source filed them. Calls come from the whole dose curve; as a rule, active = well fitted activation curve with a large enough effect in the repeat runs; inconclusive = weak or mixed curves; inactive = flat fitted curve, though single readings scatter.
Please answer using one outcome listed in Y (active), N (inactive)

>  <compound>
CCCSP(=O)(OCC)SCCC

>  <group>
N

$$$$

Turning now to a further record.
Problem: Which result was noted for this compound in the test: O=C(NC(=O)c1c(F)cccc1F)Nc1cc(Cl)c(OC(F)(F)C(F)F)c(Cl)c1
Solution: N

###

assayed_system: Cytochrome P450 2C9 (Homo sapiens) (UniProt P11712)
Sequence (P11712 whole entry, looked up): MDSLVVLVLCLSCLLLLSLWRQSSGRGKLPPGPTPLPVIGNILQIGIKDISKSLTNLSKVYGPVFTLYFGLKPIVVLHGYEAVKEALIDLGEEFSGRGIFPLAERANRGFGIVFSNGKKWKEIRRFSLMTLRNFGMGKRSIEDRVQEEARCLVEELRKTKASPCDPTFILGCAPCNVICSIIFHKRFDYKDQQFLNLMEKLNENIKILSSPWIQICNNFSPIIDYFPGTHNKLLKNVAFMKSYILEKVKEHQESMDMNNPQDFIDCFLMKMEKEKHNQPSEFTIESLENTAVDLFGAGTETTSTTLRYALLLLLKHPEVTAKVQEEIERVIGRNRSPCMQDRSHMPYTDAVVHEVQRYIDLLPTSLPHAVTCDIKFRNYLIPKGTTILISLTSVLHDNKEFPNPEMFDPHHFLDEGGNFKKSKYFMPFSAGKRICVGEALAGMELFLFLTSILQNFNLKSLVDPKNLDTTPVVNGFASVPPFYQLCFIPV
method_notes: Cytochrome P450 Family 2 Subfamily C Member 9 (CYP2C9) small molecule antagonists: luciferase reporter qHTS assay (AID 1671198); note: nearly all actives have a fitted effect of over 50% in size
protocol_conditions: P450-Glo CYP2C9 enzyme assay, luciferin luminescence; series mostly up to 115 µM
Records with an inconclusive call do not appear. Activity calls are given as the source filed them. Calls follow the shape of the dose curve; as a rule, active = well fitted inhibition curve with a large enough effect in the repeat runs; inconclusive = weak or mixed curves; inactive = no such curve, though single readings can be large or run the other way.
Please answer using one outcome listed in active, inactive

Illustrative cases are given below, each with its answer.
>  <compound>
CC(C)[C@H](C(=O)OC(C#N)c1cccc(Oc2ccccc2)c1)c1ccc(OC(F)F)cc1 (some centres not stated)

>  <group>
active

$$$$
>  <compound>
CC(=O)O[C@H]1CC[C@@]2(C)C(=CC[C@@H]3[C@@H]2CC[C@]2(C)C(=O)CC[C@@H]32)C1

>  <group>
active

$$$$

Turning now to a further record.
Problem: Which result was noted for this compound in the test: Oc1ccccc1Br
Solution: inactive

###

method_notes: qHTS assay to identify small molecule antagonists of the retinoic acid receptor (RAR) signaling pathway (AID 1159552; note: nearly all actives have a fitted effect of over 50% in size)
protocol_conditions: C3RL4 RARE luciferase reporter, retinol-stimulated, 6 h; series mostly up to 92.4 µM
Results filed as inconclusive are left out. Calls of active or inactive are those of the source. Calls follow the shape of the dose curve; as a rule, active = well fitted inhibition curve with a large enough effect in the repeat runs; inconclusive = weak or mixed curves, or effect the other way; inactive = no such curve, though single readings can be large or run the other way.
Please answer using one outcome listed in active, inactive

Illustrative cases are given below, each with its answer.
>  <molecule>
CC[C@H]1C[C@@H]2C[C@H]3c4[nH]c5ccc(OC)cc5c4CCN(C2)[C@@H]13

>  <group>
inactive

$$$$
>  <molecule>
CCc1nn(C)c(C(=O)NCc2ccc(C(C)(C)C)cc2)c1Cl

>  <group>
active

$$$$
>  <molecule>
Clc1ccc(-c2ccc(Cl)c(Cl)c2Cl)c(Cl)c1Cl

>  <group>
inactive

$$$$
>  <molecule>
O=C(CCl)C(Cl)Cl

>  <group>
active

$$$$
>  <molecule>
C=CC(=O)OCC(COC(=O)C=C)(COC(=O)C=C)COC(=O)C=C

>  <group>
active

$$$$

Problem: Which result was noted for this molecule in the test: CC(=O)O[C@H]1CC[C@@]2(C)C(=CC[C@@H]3[C@@H]2CC[C@]2(C)C(=O)CC[C@@H]32)C1
Solution: inactive

Problem: Request: O=C1C=CC(=O)c2ccccc21
Solution: active

Problem: Request: CCCCCCCCCCCCCCCCCCn1cc[n+](C)c1
Solution: active

Problem: Request: CN(C)c1ccc(N=Nc2ccccc2)cc1
Solution: inactive

###

assayed_system: Thyrotropin-releasing hormone receptor (Homo sapiens) (UniProt P34981)
Sequence (P34981 whole entry, looked up): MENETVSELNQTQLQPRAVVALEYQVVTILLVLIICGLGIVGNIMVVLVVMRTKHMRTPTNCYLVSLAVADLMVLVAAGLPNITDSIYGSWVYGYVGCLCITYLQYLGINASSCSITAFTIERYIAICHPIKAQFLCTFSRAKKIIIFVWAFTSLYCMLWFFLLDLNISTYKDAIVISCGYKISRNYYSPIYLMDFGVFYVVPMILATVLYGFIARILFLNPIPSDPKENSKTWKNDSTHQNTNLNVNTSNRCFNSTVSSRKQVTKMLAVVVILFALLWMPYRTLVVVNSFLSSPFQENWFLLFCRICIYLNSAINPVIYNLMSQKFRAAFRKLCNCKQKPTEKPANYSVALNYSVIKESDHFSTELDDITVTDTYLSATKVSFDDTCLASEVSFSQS
method_notes: qHTS assay to identify small molecule antagonists of the thyrotropin-releasing hormone receptor (TRHR) signaling pathway (AID 1346877)
protocol_conditions: TRHR-HEK293, TRH-induced calcium fluorescence, antagonist mode; series mostly up to 51.3 µM
Calls of active or inactive are those of the source. Calls follow the shape of the dose curve; as a rule, active = well fitted inhibition curve with a large enough effect in the repeat runs (not every such curve was filed as active); inconclusive = weak or mixed curves; inactive = flat fitted curve, though single readings scatter.
Please answer using one outcome listed in Y for active, N for inactive

>  <compound>
c1ccc2c(c1)[nH]c1cnccc12

>  <group>
N

$$$$
>  <compound>
CC1(C)[C@H](C(=O)O[C@H](C#N)c2cccc(Oc3ccccc3)c2)[C@@H]1/C=C(\Cl)C(F)(F)F

>  <group>
N

$$$$
>  <compound>
ClC1=C(Cl)C2(Cl)C3C(Cl)C(Cl)CC3C1(Cl)C2(Cl)Cl (stereo not given)

>  <group>
N

$$$$
>  <compound>
O=[N+]([O-])c1c2ccccc2cc2ccccc12

>  <group>
N

$$$$
>  <compound>
CC(C)CBr

>  <group>
N

$$$$

Problem: Which result was noted for this compound in the test: N#CCCO
Solution: N

Problem: Request: CN(CCCC(=O)c1cccnc1)N=O
Solution: N

###

assayed_system: Thyrotropin-releasing hormone receptor (Homo sapiens)
method_notes: qHTS assay to identify small molecule antagonists of the thyrotropin-releasing hormone receptor (TRHR) signaling pathway (AID 1346877)
protocol_conditions: TRHR-HEK293, TRH-induced calcium fluorescence, antagonist mode; series mostly up to 51.3 µM
The source made the active and inactive calls. Calls come from the whole dose curve; as a rule, active = well fitted inhibition curve with a large enough effect in the repeat runs (not every such curve was filed as active); inconclusive = weak or mixed curves; inactive = flat fitted curve, though single readings scatter.
Please answer using one outcome listed in active, inactive

Illustrative cases are given below, each with its answer.
>  <compound>
CCOc1cc(C(C)(C)C)ccc1C1COC(c2c(F)cccc2F)=N1 (stereo unspecified)

>  <group>
inactive

$$$$
>  <compound>
CCC(C)(C)C(=O)OC1=C(c2ccc(Cl)cc2Cl)C(=O)OC12CCCCC2

>  <group>
inactive

$$$$
>  <compound>
CC(C)CCCCCCCOP(=O)(Oc1ccccc1)Oc1ccccc1

>  <group>
inactive

$$$$

Problem: Which result was noted for this compound in the test: CN(C)S(=O)(=O)N(SC(F)(Cl)Cl)c1ccccc1
Solution: active

Problem: Request: FC(Cl)(Cl)Cl
Solution: inactive

Problem: Request: CCOP(=S)(OCC)SCCS(=O)(=O)CC
Solution: inactive

Problem: Request: CN(C)CCc1c[nH]c2ccc(O)cc12
Solution: inactive

Problem: Request: CCOCn1c(-c2ccc(Cl)cc2)c(C#N)c(Br)c1C(F)(F)F
Solution: inactive

Problem: Request: ClC1=C(Cl)[C@]2(Cl)[C@H]3[C@H]([C@H]4C=C[C@H]3C4)[C@@]1(Cl)C2(Cl)Cl
Solution: inactive

Problem: Request: Oc1ccc(C2(c3ccc(O)cc3)c3ccccc3-c3ccccc32)cc1
Solution: inactive

Problem: Request: FC(F)(F)c1cccc(C2=CCN(CCc3ccc4ccccc4c3)CC2)c1
Solution: inactive

###

assayed_system: Estrogen receptor (Homo sapiens) (UniProt P03372)
Sequence (P03372 whole entry, looked up): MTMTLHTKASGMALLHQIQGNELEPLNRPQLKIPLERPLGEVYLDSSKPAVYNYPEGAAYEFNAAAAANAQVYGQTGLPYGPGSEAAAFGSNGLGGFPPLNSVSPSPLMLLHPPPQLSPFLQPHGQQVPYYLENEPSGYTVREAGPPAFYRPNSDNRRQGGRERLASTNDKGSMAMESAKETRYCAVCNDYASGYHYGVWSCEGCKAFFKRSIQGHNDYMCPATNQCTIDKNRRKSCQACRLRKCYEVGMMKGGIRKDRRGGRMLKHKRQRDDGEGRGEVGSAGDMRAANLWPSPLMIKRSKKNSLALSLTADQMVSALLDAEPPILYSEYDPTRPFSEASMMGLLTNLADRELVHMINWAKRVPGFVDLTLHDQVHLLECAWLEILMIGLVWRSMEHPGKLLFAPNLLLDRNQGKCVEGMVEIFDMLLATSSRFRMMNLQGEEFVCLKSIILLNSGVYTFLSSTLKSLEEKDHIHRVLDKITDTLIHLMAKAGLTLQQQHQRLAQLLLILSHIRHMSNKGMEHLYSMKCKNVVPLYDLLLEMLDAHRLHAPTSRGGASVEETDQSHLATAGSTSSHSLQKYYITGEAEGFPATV
method_notes: qHTS assay to identify small molecule antagonists of the estrogen receptor alpha (ER-alpha) signaling pathway using the BG1 cell line in the presence of 0.1 nM 17-beta-estradiol (AID 1259244); note: nearly all actives have a fitted effect of over 50% in size; note: potency is the fitted concentration of half-maximal effect
protocol_conditions: VM7Luc4E2 (BG1) ERE-luciferase, antagonist mode, 0.1 nM E2, 22 h; series mostly up to 92.4 µM
Description: National Center for Advancing Translational Sciences [NCATS] NIH Chemical Genomics Center [NCGC] U.S. Environmental Protection Agency [EPA] National Institutes of Environmental Health Sciences [NIEHS] National Toxicology Program [NTP] U.S. Food and Drug Administration [FDA] Estrogen receptor (ER), a member of the nuclear hormone receptor plays an important role in development, metabolic homeostasis and reproduction. […]
Inconclusive results are not listed. Activity calls are given as the source filed them. Calls follow the shape of the dose curve; as a rule, active = well fitted inhibition curve with a large enough effect in the repeat runs; inconclusive = weak or mixed curves; inactive = no such curve, though single readings can be large or run the other way.
quantity_kind: Potency

Some molecules with recorded Potency:
>  <molecule>
N#C/C=C/C#N

>  <Potency>
inactive

$$$$
>  <molecule>
CC(=O)c1cc(C(C)(C)C)cc2c1CCC2(C)C

>  <Potency>
inactive

$$$$
>  <molecule>
O=[N+]([O-])c1cc(Cl)ccc1Cl

>  <Potency>
inactive

$$$$
>  <molecule>
COc1ccc(OC)c(C=O)c1

>  <Potency>
inactive

$$$$

Problem: What measured Potency goes with Nc1ccccc1C(=O)Oc1ccc2ccccc2c1 ?
Solution: inactive

Problem: Request: COP(=O)(CCC(=O)NCO)OC
Solution: inactive

Problem: Request: CC(C)(C)c1ccc(CSc2cnn(C(C)(C)C)c(=O)c2Cl)cc1
Solution: 0.0154 µM (active)

Problem: Request: COC(=O)N(C(=O)N1COC2(C(=O)OC)Cc3cc(Cl)ccc3C2=N1)c1ccc(OC(F)(F)F)cc1 (configuration not stated)
Solution: inactive

Problem: Request: C=COCCCl
Solution: inactive

This collection of values is drawn from PubChem BioAssay (Tox21).
